# Tested on: 565232-114-T-J1-PDC complex spheroid viability;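 note: spheroids exposed to compounds for 7 days before readout; 100% = DMSO vehicle wells with luminescence normalized to vehicle control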
# methodDescription: Anticancer human tumor 565232-114-T-J1-PDC patient-derived bladder carcinoma cell line growth inhibition [CLK]; active = viability on the fitted dose curve at most 10% of control; inactive = the rest
# conditionLabel: second compound 3.16 µM; first compound 3.16 µM
Please state which outcome applies, choosing from 1 for active, -1 for inactive

{"columns": ["molecule", "categoryLabel"],
 "data": [
  ["O=c1[nH]cc(F)c(=O)[nH]1 + CNC(=O)c1ccc(Nc2nc(OC3CCCC3)c3c(-c4ccc5nc(C)oc5c4)c[nH]c3n2)c(OC)c1", -1],
  ["COc1cccc2c1C(=O)c1c(O)c3c(c(O)c1C2=O)CC(O)(C(=O)CO)CC3OC1CC(N)C(O)C(C)O1 (stereo not drawn) + CN1CCN(c2cc(C(=O)Nc3cc4cc(-c5cnn(C)c5)ccc4cn3)ccn2)CC1", 1]
]}

Fill in: this test's call for COC1C=CCC(C)C(C)S(=O)(=O)NC(=O)c2ccc3c(c2)N(CC2CCC21)CC1(CCCc2cc(Cl)ccc21)CO3 (stereo not drawn) + CNC(=O)c1ccc(Nc2nc(OC3CCCC3)c3c(-c4ccc5nc(C)oc5c4)c[nH]c3n2)c(OC)c1 is ___
1

This collection of values is drawn from PubChem BioAssay AID2060612.
